List of growth inhibition values.
Assay: NCI Yeast Anticancer Drug Screen. Data for the cln2 rad14 strain (AID 165);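 further: 0% = growth equal to vehicle treated cultures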
Details: S. cerevisiae cln2 rad14 strain, at 50.0 µM, active compounds read high
About 79,000 compounds went through this panel and 15% of them were active in at least one assay; those are over-represented in the sample as a whole.
property: growth inhibition (%)

> print(dat)
                                    molecule  measurementunits  observed
 1  NC(Cc1cccc(F)c1)C(=O)O (stereo not given)                 %     -12.4
 2  O=c1[nH]c(=O)n(C2CC(O)C(CO)O2)cc1NN=NCCCc1ccccc1 (stereo not given)                 %      10.8
 3  O=C(NCCCCCCNC(=O)c1cc(-c2ccccc2)nc2ccccc12)c1cc(-c2ccccc2)nc2ccccc12                 %     -17.4
 4          CCCCC(C)C(C)O (stereo not given)                 %      11.2
 5  COC(=O)c1cc2c(cc1CC(Cc1ccc3c(c1)CCC3)C(=O)OC)CCC2 (stereo not given)                 %     -34.1
 6  COc1ccc(C(c2cc3c(cc2O)OCO3)n2ccnc2)cc1 (stereo not given)                 %     -55.5
 7   C=C(C)c1ccccc1S(=O)(=O)c1ccccc1C(C)(C)O                 %      55.1
 8                     NCOC(=O)Cc1ccc(Br)cc1                 %     -2.55
 9               COc1ccc(OCC(=O)N2CCCCC2)cc1                 %     -40.2
10             O=[n+]1ccn([O-])c2cc(Cl)ccc21                 %     -16.2
11                       CCCCC(C(=O)O)C(=O)O                 %       1.1
12  S=C(Nc1ccc2c(c1)Cc1ccccc1-2)Nc1ccc2c(c1)Cc1ccccc1-2                 %     -12.7
13                              COCCc1ccncc1                 %     -6.45
14                   CCCCCCCCCCCCOC(=O)CSC#N                 %     -67.5
15                CC(=O)OCCn1c(=O)sc2ccccc21                 %     -8.35
16                    Cc1ccc(SCC(=O)O)c(C)c1                 %        14
17  O=C(N/C(=C\c1cc(Cl)ccc1Cl)c1nc2ccccc2[nH]1)c1ccccc1                 %        25
18  O=C1CC(=O)N(CCc2ccccc2)S(=O)(=O)N1CCc1ccccc1                 %      30.4
19             C/C(CCN(C)C)=N\OC(=O)c1ccccc1                 %     -6.65
20                     Cc1cncc(C)c1P(=O)(O)O                 %     -19.8
21  CC1OC(OCC2OC(Oc3c(-c4ccc(O)cc4)oc4cc(O)cc(O)c4c3=O)C(OC3OC(C)C(O)C(O)C3O)C(O)C2O)C(O)C(O)C1O (stereo not given)                 %      2.75
22                  O=C(O)CSc1ncnc2nc[nH]c12                 %      27.6
23                 Cc1cc(C)c(CCC(=O)O)c(C)c1                 %       6.6
24  COc1ccc(C(c2c(O)c3ccccc3oc2=O)N2CCCC2)c(OC)c1 (stereo not given)                 %     -25.1
25    O=C1/C(=C\c2ccccn2)c2ccccc2N1Cc1ccccc1                 %      16.9

Cited source for all entries: PubChem BioAssay (NCI)
